Setup Conditions: in ethanol, 318.15 K
Measured Quantity: solubility (mole fraction)
Write no unit; give the number alone.

Query CO/N=C1\C[C@]2(C[C@@H]3C[C@@H](C/C=C(\C)C[C@@H](C)/C=C/C=C4\CO[C@@H]5[C@H](O)C(C)=C[C@@H](C(=O)O3)[C@]45O)O2)O[C@H](/C(C)=C/C(C)C)[C@H]1C yields solubility (mole fraction) of 0.196

* * *

Setup Conditions: in ethanol, 308.15 K
Measured Quantity: solubility (mole fraction)
Just the number, please, no unit after it.

Memo: CO/N=C1\C[C@]2(C[C@@H]3C[C@@H](C/C=C(\C)C[C@@H](C)/C=C/C=C4\CO[C@@H]5[C@H](O)C(C)=C[C@@H](C(=O)O3)[C@]45O)O2)O[C@H](/C(C)=C/C(C)C)[C@H]1C , reported solubility (mole fraction): 0.153

* * *

Setup Conditions: in ethylene glycol, 283.15 K
Measured Quantity: solubility (mole fraction)
Please reply with the value in numeric form only.

solubility (mole fraction) reading for CO/N=C1\C[C@]2(C[C@@H]3C[C@@H](C/C=C(\C)C[C@@H](C)/C=C/C=C4\CO[C@@H]5[C@H](O)C(C)=C[C@@H](C(=O)O3)[C@]45O)O2)O[C@H](/C(C)=C/C(C)C)[C@H]1C : 0.0049

* * *

Setup Conditions: in ethanol, 293.15 K
Measured Quantity: solubility (mole fraction)
Lab note: record the figure alone, no unit after it.

In plain terms, CO/N=C1\C[C@]2(C[C@@H]3C[C@@H](C/C=C(\C)C[C@@H](C)/C=C/C=C4\CO[C@@H]5[C@H](O)C(C)=C[C@@H](C(=O)O3)[C@]45O)O2)O[C@H](/C(C)=C/C(C)C)[C@H]1C has a documented solubility (mole fraction) of 0.097

* * *

Setup Conditions: in isopropanol, 293.15 K
Measured Quantity: solubility (mole fraction)

compound CO/N=C1\C[C@]2(C[C@@H]3C[C@@H](C/C=C(\C)C[C@@H](C)/C=C/C=C4\CO[C@@H]5[C@H](O)C(C)=C[C@@H](C(=O)O3)[C@]45O)O2)O[C@H](/C(C)=C/C(C)C)[C@H]1C , solubility (mole fraction) observed: 0.0178

* * *

Setup Conditions: in ethanol, 283.15 K
Measured Quantity: solubility (mole fraction)

Value of measured solubility (mole fraction) for the entry CO/N=C1\C[C@]2(C[C@@H]3C[C@@H](C/C=C(\C)C[C@@H](C)/C=C/C=C4\CO[C@@H]5[C@H](O)C(C)=C[C@@H](C(=O)O3)[C@]45O)O2)O[C@H](/C(C)=C/C(C)C)[C@H]1C : 0.0674

* * *

Setup Conditions: in isopropanol, 318.15 K
Measured Quantity: solubility (mole fraction)
Respond using a number only.

Documented solubility (mole fraction) of CO/N=C1\C[C@]2(C[C@@H]3C[C@@H](C/C=C(\C)C[C@@H](C)/C=C/C=C4\CO[C@@H]5[C@H](O)C(C)=C[C@@H](C(=O)O3)[C@]45O)O2)O[C@H](/C(C)=C/C(C)C)[C@H]1C : 0.04

* * *

Setup Conditions: in ethylene glycol, 298.15 K
Measured Quantity: solubility (mole fraction)
Answer as a number with no unit attached.

GET /value?item= CO/N=C1\C[C@]2(C[C@@H]3C[C@@H](C/C=C(\C)C[C@@H](C)/C=C/C=C4\CO[C@@H]5[C@H](O)C(C)=C[C@@H](C(=O)O3)[C@]45O)O2)O[C@H](/C(C)=C/C(C)C)[C@H]1C &field=solubility (mole fraction) returns 0.00975

Taken from BigSolDB 2.1.
